System: HT-29
assay.procedure: Cytotoxicity against human HT-29 cells assessed as inhibition of cell growth incubated for 72 hrs by MTT assay
Type: functional, cell-based
assay.conditions: HT-29, 72 h
result.type: IC50

Summary for this molecule, Cn1c(=O)c(NC(=O)c2ccc(OCCCCCCCCCC[P+](c3ccccc3)(c3ccccc3)c3ccccc3)cc2)cc2cc(Br)ccc21.[Br-] : IC50 is < 0.1 µM

Summary for this molecule, COc1ccc(C(=O)Nc2cc3cc(Br)ccc3n(C)c2=O)cc1 : IC50 is > 20 µM

###

Test system: MDA-MB-231
assay.procedure: Cytotoxicity against human MDA-MB-231 cells assessed as cell growth inhibition incubated for 72 hrs by Celltiter Glo assay
Assay type: functional, cell-based
assay.conditions: MDA-MB-231, 72 h
What pIC50 was measured for each of the following?
Scale: pIC50 equals -log10([C]), with [C] in mol/L.

Summary for this compound, Cn1c(=O)c(NC(=O)c2ccc(OCCCCCCCCCC[P+](c3ccccc3)(c3ccccc3)c3ccccc3)cc2)cc2cc(Br)ccc21.[Br-] : pIC50 is 8.10

Summary for this compound, Cn1c(=O)c(NC(=O)c2ccc(OCCCCCCCCCCBr)cc2)cc2cc(Br)ccc21 : pIC50 is 5.15

Summary for this compound, Cn1c(=O)c(NC(=O)c2ccc(O)cc2)cc2cc(Br)ccc21 : pIC50 is 5.15

Summary for this compound, Cn1c(=O)c(NC(=O)c2ccc(OCCCCCCC[P+](c3ccccc3)(c3ccccc3)c3ccccc3)cc2)cc2cc(Br)ccc21.[Br-] : pIC50 is 7.09

Summary for this compound, Cn1c(=O)c(NC(=O)c2ccc(OCCCCCCCCCC[P+](c3ccccc3)(c3ccccc3)c3ccccc3)cc2)cc2ccccc21.[Br-] : pIC50 is 7.31

Summary for this compound, Cn1c(=O)c(NC(=O)c2ccc(OCCCCC[P+](c3ccccc3)(c3ccccc3)c3ccccc3)cc2)cc2cc(Br)ccc21.[Br-] : pIC50 is 7.06

Summary for this compound, Cn1c(=O)c(NC(=O)c2ccc(OCCCC[P+](c3ccccc3)(c3ccccc3)c3ccccc3)cc2)cc2cc(Br)ccc21.[Br-] : pIC50 is 7.09

Cited source: ChEMBL document CHEMBL5136984
